Measured growth inhibition values are reported for all entries that follow.
Experimental Details: NCI Yeast Anticancer Drug Screen. Data for the bub3 strain (AID 167)
Test Context: S. cerevisiae bub3 mutant strain, at 50.0 µM (retest, dose inferred, filed as 5.0), hits give high values
The panel holds about 79,000 compounds, 15% with a hit somewhere; the sample as a whole holds those more often.
Quantity Measured: growth inhibition (%)

>>> reading("CC(=O)N(/C=C\\c1sc2ccccc2[n+]1C)c1ccccc1")
98
>>> reading("C=C1CC2(CC(C(C)C)CCC2C)OC1=O (centres undefined)")
53
>>> reading("Cc1cccc(/C=N\\OCCc2ccccc2)n1")
94
>>> reading("Fc1ccc(C2(CCCN3CCc4[nH]c5cc(F)ccc5c4C3)OCCO2)cc1")
98
>>> reading("CCCC(C(=O)OCCNC1CCCCC1)c1ccccc1 (centres undefined)")
69
>>> reading("CN(/N=C\\c1ccc2ccccc2c1)C1=NCCCN1")
96
>>> reading("CN(/N=C/c1ccc(C(=O)O)cc1)C1=NCCCCN1")
28
>>> reading("O=C1c2ccccc2C(=O)c2c(/C=C\\N3CCCCC3)ccnc21")
98
>>> reading("[C-]#[N+]C(C)(c1ccccc1)c1ccccc1")
80
>>> reading("Cc1ccc([P+](CCN2C(=O)c3ccccc3C2=O)(c2ccc(C)cc2)c2ccc(C)cc2)cc1")
99
>>> reading("CC(=O)Nc1ccc(-c2nnc(SCC(=O)Nc3cccc(Cl)c3)o2)cc1")
56
>>> reading("CCC1(CC(=O)O)OCCc2c1[nH]c1c(C)c(Cl)ccc21 (centres undefined)")
96
>>> reading("COc1ccc2c(c1)C(O)=C(CC=C(C)C)C(=O)C2=O")
23
>>> reading("O=C(/C=C/C(=N\\Nc1ccccc1)c1ccccc1)c1ccccc1")
99
>>> reading("O=C1OC(=O)C2C(c3ccccc3)=C(c3ccccc3)C(c3ccccc3)=C(c3ccccc3)C12 (centres undefined)")
63
>>> reading("Cc1cc(C)nc(/C=C/c2ccccc2)c1")
29
>>> reading("N#CC1(C#N)C(C#N)(C#N)C12CCCC2")
81
>>> reading("Cc1cc(=O)[nH]c(NN2C(Cl)C(=O)C2c2ccc(O)cc2)n1 (centres undefined)")
94
>>> reading("CCO/N=C1\\CCCCC1SS(=O)(=O)O (centres undefined)")
22
>>> reading("O=[N+]([O-])c1ccc(C2=Nn3c(nnc3-c3ccc(Cl)cc3)SC2)o1")
93
>>> reading("C(=C\\c1cnnc2ccccc12)/c1cccnc1")
22
>>> reading("CCCCCOC(=O)c1ccc(O)cc1")
99
>>> reading("CC(C)CN(CC(C)C)CN1C(=O)/C(=C/c2ccc([N+](=O)[O-])cc2)SC1=S")
37
>>> reading("COC1=CC2=CCC3C(CCC4(C)C(C(C)=O)CCC34)C2(C)CC1 (centres undefined)")
-5

###

Experimental Details: NCI Yeast Anticancer Drug Screen. Data for the bub3 strain (AID 167)
Test Context: S. cerevisiae bub3 mutant strain, at 5.0 µM (retest, dose inferred, filed as 0.5), hits give high values
The panel holds about 79,000 compounds, 15% with a hit somewhere; the sample as a whole holds those more often.
Quantity Measured: growth inhibition (%)

>>> reading("CC(=O)Oc1c(C)cc(C)cc1Cc1cc(C(C)=O)cc(Cc2cc(C)cc(C)c2OC(C)=O)c1OC(C)=O")
22
>>> reading("N=c1ccc2c(c1)[nH]c1c3ccccc3[nH]c3cccc2c31")
18
>>> reading("CCCCCCCCCCCCCCCC1(OC)C[N+](C)(C)CCO1 (stereo not drawn)")
99
>>> reading("Nc1ncnc2c1ncn2C1OCC(O)C1O (stereo not drawn)")
20
>>> reading("O=C1c2ccc(S(=O)(=O)O)cc2C(=O)c2ccc(S(=O)(=O)O)cc21")
1
>>> reading("CCCOC(=O)CSC#N")
33
>>> reading("COc1ccc(-c2cn(-c3ccccc3)c3ncnc(N)c23)cc1")
2
>>> reading("Cc1ccc(NC(=S)SCc2ccc3c(c2)OCO3)cc1Cl")
15
>>> reading("Clc1ccc(Oc2nc(Cl)nc3[nH]ncc23)cc1")
7
>>> reading("N#CC12CCCC(=O)N1c1ccccc1S2 (stereo not drawn)")
3
>>> reading("C(=N\\N=C\\c1ccc2c(c1)OCO2)/c1ccc2c(c1)OCO2")
3
>>> reading("Nc1[nH]cnc(=S)c1NC=O")
0
>>> reading("C=CNC(=O)Oc1ccccc1")
-64
